# protocol notes: S. Typhimurium GFP fluorescence dose response in modified counterscreen for PhoP regulon inhibitor project (AID 1981)
# measurement setup: 4 h; series mostly up to 150 µM
About 480 (22%) of roughly 2,200 compounds were called active. Only a sample is shown. Entries with a potency or affinity are not part of this list.
experimental endpoint: outcome

Field: example entries. Status: answers known.
[
  {
    "compound": "COc1ccc(Br)cc1C(=O)NCc1cccnc1",
    "outcome": "inactive"
  },
  {
    "compound": "N/C(=N/OC(=O)c1ccccc1Cl)c1ncc([N+](=O)[O-])s1",
    "outcome": "inactive"
  },
  {
    "compound": "O=C(Nc1cccc(Cl)c1)Nc1ccc2c(c1)OCO2",
    "outcome": "inactive"
  },
  {
    "compound": "O=C(NCCCc1ccccc1)Nc1cccc(Cl)c1",
    "outcome": "inactive"
  },
  {
    "compound": "Cc1ccc2cccnc2c1NC(=S)NC(=O)c1ccccc1",
    "outcome": "inactive"
  }
]

State its outcome: O=C(NC(c1ccc(Cl)cc1)c1c(O)ccc2ccccc12)c1ccccc1 (stereo unspecified)
inactive

###

# protocol notes: S. Typhimurium GFP fluorescence dose response in modified counterscreen for PhoP regulon inhibitor project (AID 1981)
# measurement setup: 4 h; series mostly up to 150 µM
Screen size: about 2,200 compounds; about 480 (22%) were called active. The list is a sample of the results. Results with a measured potency or affinity are listed apart.
experimental endpoint: outcome

[
  {
    "compound": "CCCCCNS(=O)(=O)c1cc(C)ccc1OC",
    "outcome": "inactive"
  },
  {
    "compound": "COCCNCCOc1ccccc1-c1ccccc1",
    "outcome": "inactive"
  },
  {
    "compound": "CCCCOc1ccc(NC(=O)Nc2nnc(C)s2)cc1",
    "outcome": "inactive"
  },
  {
    "compound": "CCOCC(=O)Nc1ccc(F)c(F)c1",
    "outcome": "inactive"
  },
  {
    "compound": "Cc1ccc(C(=O)NC(=S)Nc2cccc3c(C)cc(C)nc23)cc1",
    "outcome": "inactive"
  }
]

Give the reported outcome for this compound. CC(C)c1ccc(C2NC(=O)NC3=C2CCc2ccccc23)cc1 (configuration not stated)
inactive

Output measured outcome for this item: O=C(NCC(=O)N(c1cccnc1)C(C(=O)NCc1ccco1)c1ccccc1)c1ccco1 (configuration not stated)
inactive

Note outcome for the compound shown: N#CC1=C(N)N=C(SCc2cccc3ccccc23)C(C(N)=O)C12CCCCC2 (configuration not stated)
inactive

Return value of outcome for input Cc1cc(-c2nnc(-c3ccccc3)c(-c3ccccc3)n2)c(C)o1 , no commentary.
inactive

Using known records, supply outcome for O=C(CSc1nnc2c(Cl)cc(Cl)cn12)NC1CCS(=O)(=O)C1 (configuration not stated)
inactive

###

# protocol notes: S. Typhimurium GFP fluorescence dose response in modified counterscreen for PhoP regulon inhibitor project (AID 1981)
# measurement setup: 4 h; series mostly up to 150 µM
About 480 (22%) of roughly 2,200 compounds were called active. These entries were drawn from the full list. Results with a measured potency or affinity are listed apart.
experimental endpoint: outcome

Below, each entry is followed by its recorded outcome result.
[
  {
    "compound": "Nc1nc(Nc2ccc(Cl)cc2)n[nH]1",
    "outcome": "inactive"
  },
  {
    "compound": "Cc1cc(C=O)c(C)n1-c1ccc(Oc2ccc([N+](=O)[O-])cn2)cc1",
    "outcome": "inactive"
  },
  {
    "compound": "O=C(NCCNS(=O)(=O)c1cccc(C(F)(F)F)c1)c1cc(OCC(F)(F)F)ccc1OCC(F)(F)F",
    "outcome": "inactive"
  },
  {
    "compound": "CCN1CCN(Cc2ccc(C)cc2C)CC1",
    "outcome": "inactive"
  },
  {
    "compound": "Cc1cccc(C=Nc2ccc3c(c2)oc2ccccc23)c1O",
    "outcome": "inactive"
  },
  {
    "compound": "CCn1nc(C(=O)OC(C(=O)c2c[nH]c3ccccc23)c2ccccc2)c2ccccc2c1=O (stereo not drawn)",
    "outcome": "inactive"
  }
]

Annotate the compound COc1ccc(C(=O)On2c(-c3ccc(Br)cc3)nc3ccccc3c2=O)cc1 with its measured outcome.
inactive

Identify outcome associated with the compound COc1ccc(OC)c(-c2cc(C(=O)Nc3c(C)nn(Cc4ccccc4)c3C)no2)c1
inactive

Name the recorded outcome of the item Nc1ccc2oc(=O)c3ccccc3c2c1 in your answer.
inactive

// Input: Cc1cccc(OCC(=O)N(Cc2cccs2)C2CCS(=O)(=O)C2)c1C (stereo not drawn) . Output its outcome only.
inactive

###

# protocol notes: S. Typhimurium GFP fluorescence dose response in modified counterscreen for PhoP regulon inhibitor project (AID 1981)
# measurement setup: 4 h; series mostly up to 150 µM
Among all 2,200 compounds or so, about 480 (22%) were called active. A selection follows. Results with a measured potency or affinity are listed apart.
experimental endpoint: outcome

Below: 5 compounds and their reported outcome.
[
  {
    "compound": "COc1ccc(C(=O)Nc2cc(C)ccc2NC(=O)COc2ccccc2)cc1",
    "outcome": "inactive"
  },
  {
    "compound": "COc1cccc(NC(=O)NCCCN2CCN(c3ccc(F)cc3)CC2)c1",
    "outcome": "inactive"
  },
  {
    "compound": "CCOc1ccc(/C=N/O)cc1",
    "outcome": "inactive"
  },
  {
    "compound": "O=C1CC(SCc2nc3ccccc3[nH]2)C(=O)N1c1ccc(Cl)cc1 (centres undefined)",
    "outcome": "inactive"
  },
  {
    "compound": "Clc1ccc(C[n+]2cc(-c3ccc(Cl)cc3)n3c2CCC3)cc1",
    "outcome": "inactive"
  }
]

Could you now look at the following compound, please?
Look up outcome of Cc1cccc(N2CCN(CC(=O)Nc3nccs3)CC2)c1C and report it.
inactive

###

# protocol notes: S. Typhimurium GFP fluorescence dose response in modified counterscreen for PhoP regulon inhibitor project (AID 1981)
# measurement setup: 4 h; series mostly up to 150 µM
Hit rate of the full screen: of about 2,200 compounds, about 480 (22%) were called active. A selection follows. Measured potencies and affinities stand elsewhere.
experimental endpoint: outcome

Study these solved cases before continuing.
[
  {
    "molecule": "COc1ccc(N=c2cc(-c3ccc(OC)cc3)oc3ccccc23)cc1",
    "reported": "inactive"
  },
  {
    "molecule": "Cc1ccccc1C(=O)N(C)Cc1ccccc1",
    "reported": "inactive"
  },
  {
    "molecule": "CC(C)c1ccc(O)c(NC(=O)c2cncc(Br)c2)c1",
    "reported": "inactive"
  },
  {
    "molecule": "NC(=S)c1cc2ccc(O)cc2oc1=O",
    "reported": "inactive"
  },
  {
    "molecule": "O=C(c1ccccc1)c1nc2ccccc2n(CCCn2c(=O)c(C(=O)c3ccccc3)nc3ccccc32)c1=O",
    "reported": "inactive"
  }
]

For the molecule c1ccc(CN2CCN(c3nc(NCc4ccco4)c4ccccc4n3)CC2)cc1 , report outcome.
inactive

Quote outcome reported for CCn1c(Cc2ccccc2)nnc1SCC(=O)Nc1nc(C)c(C)s1 please.
inactive

Note down outcome recorded for O=S(=O)(c1ccc2c(c1)OCCO2)N1CCN(c2cccc(Cl)c2)CC1
inactive

Please supply the value of reported outcome for the item Cc1ccc(C(=O)C2COC(=O)C2)cc1 (stereo not given)
inactive

Using known records, supply outcome for Cc1ccc(C(C(=O)NCc2ccco2)N(CCc2ccccc2)C(=O)Cn2nnc3ccccc32)o1 (stereo not given)
inactive

Given Cc1ccc2nc(SCC(=O)c3c(C)[nH]c4ccccc34)[nH]c2c1 , respond with its outcome.
inactive

Find the measured outcome of O=C(NCCc1ccc(Cl)cc1)/C(=C/c1cccnc1)NC(=O)c1ccccc1 and report it.
inactive

Give a short answer stating reported outcome for COc1ccc(OC)c(/C=N/NC(=O)Cc2nc3ccccc3[nH]2)c1 .
inactive

Item Oc1ccccc1Nc1nc(NCc2ccco2)c2ccccc2n1 : provide outcome
inactive

Note outcome for the molecule shown: CCc1ccccc1NC(=O)c1nnn(CC(=O)Nc2cccc(C)c2C)c1N
inactive

Specify outcome for COC(=O)C(CCSC)NC(=O)c1cccc([N+](=O)[O-])c1 (stereo not given) and stop.
inactive

Fill in reported outcome for this entry: Cc1ccc2nc(C)c(CN3CCN(c4ccc([N+](=O)[O-])cc4Cl)CC3)n2c1
inactive

# return recorded outcome for entry Cc1cccc(CN(C)C)c1OC(=O)N(C)C
inactive

Specify reported outcome for the molecule shown: Cc1cccc(C(=O)NC(NCc2ccco2)C(Cl)(Cl)Cl)c1 (stereo not given)
inactive

Fill in reported outcome for this entry: CCSc1nc(C2CC2)cc(-c2cccs2)c1C#N
inactive

Please list outcome recorded for the molecule Cn1nnnc1SCC(=O)NC1CCCCC1
inactive

###

# protocol notes: S. Typhimurium GFP fluorescence dose response in modified counterscreen for PhoP regulon inhibitor project (AID 1981)
# measurement setup: 4 h; series mostly up to 150 µM
Hit rate of the full screen: of about 2,200 compounds, about 480 (22%) were called active. These entries were drawn from the full list. Entries with a potency or affinity are not part of this list.
experimental endpoint: outcome

See these solved cases before continuing.
[
  {
    "molecule": "CCOc1ccc(N/C=C/C(=O)c2ccc(OC)cc2)c([N+](=O)[O-])c1",
    "outcome": "inactive"
  },
  {
    "molecule": "COC(=O)c1ccc(NC(=S)Nc2ccc3ccccc3c2)cc1",
    "outcome": "inactive"
  },
  {
    "molecule": "Cc1cccc(C)c1OCC(=O)Nn1c(COc2ccccc2)nc2ccccc2c1=O",
    "outcome": "inactive"
  },
  {
    "molecule": "CCOC(=O)COc1ccccc1/C=C\\[N+](=O)[O-]",
    "outcome": "inactive"
  },
  {
    "molecule": "Nc1nnc(Sc2ccc(Cl)cc2[N+](=O)[O-])s1",
    "outcome": "inactive"
  },
  {
    "molecule": "S=C(Nc1cccc(Cl)c1)Nc1cccc2cnccc12",
    "outcome": "inactive"
  },
  {
    "molecule": "COc1cccc(/C=N/n2c(C)nc3ccccc3c2=O)c1O",
    "outcome": "inactive"
  },
  {
    "molecule": "COc1ccc2nc(NC(=O)C3CCCN3S(=O)(=O)c3ccc(C)cc3)sc2c1 (stereo not drawn)",
    "outcome": "inactive"
  },
  {
    "molecule": "Cc1ccc(C(=O)COC(=O)CNS(=O)(=O)c2ccccc2)cc1[N+](=O)[O-]",
    "outcome": "inactive"
  },
  {
    "molecule": "Cc1cccc(OCC(=O)N2CCN(Cc3ccncc3)CC2)c1",
    "outcome": "inactive"
  }
]

Assign outcome to the following record: CCC(C)N1C(=O)/C(=C/c2ccc3c(c2)CCN3CCCCl)C(=O)NC1=S (stereo not drawn)
inactive

Answer with reported outcome of O=C(CNC(=O)c1ccco1)OCC(=O)c1ccc2c(c1)CCCC2
inactive

Let me know recorded outcome for O=C(NNc1c2ccccc2nc2ccccc12)c1cccc(O)c1 , thanks.
inactive

# return recorded outcome for entry O=C(c1ccc(-c2ccccc2)cc1)c1ccccc1C(=O)N1CCOCC1
inactive

Please report the measured outcome for Nc1cc(N)cc(-c2nc3ccccc3[nH]2)c1
inactive

Annotate the molecule O=S(=O)(NC1=NCCCCC1)c1cccs1 with its measured outcome.
inactive

Supply recorded outcome for CSCC[C@H](NC(=O)Nc1ccc(C)cc1)C(=O)O here.
inactive

Identify the reported outcome for the following entry. CN(C)C(=O)On1c(-c2ccccc2)nc2ccc(Cl)cc21
inactive

Report outcome, nothing else, for this molecule: O=C(CCNS(=O)(=O)c1cccc2nsnc12)Nc1ccc2c(c1)OCCO2
inactive

Look up outcome of O=S1(=O)CC(O)C(Nc2ccccc2Cl)C1 (stereo not drawn) and report it.
inactive

Give reported outcome value for COc1ccc(S(=O)(=O)n2nc(OC(=O)c3ccccc3Br)cc2N)cc1
inactive

Return outcome for the following molecule: COc1cccc(C(=O)Oc2c(CN3CCOCC3)cc(Cl)c3cccnc23)c1
inactive

// fetch outcome given entry Cc1ccc(-c2nnc(SCC(=O)N3CCCc4ccccc43)n2N)cc1
inactive
